Reported pIC50 values follow for various binders
Target: T1, His-tagged, full-length PCSK9 (human, UniProt Q8NBP7 31-692)
T1 construct: secreted PCSK9 is autocatalytically cleaved into prodomain and catalytic domain + CRD (from S153), which stay associated; also called His-PCSK9; proprotein convertase subtilisin/kexin type 9; not shown: His tag
T1 sequence (Q8NBP7 31-692 limits assumed): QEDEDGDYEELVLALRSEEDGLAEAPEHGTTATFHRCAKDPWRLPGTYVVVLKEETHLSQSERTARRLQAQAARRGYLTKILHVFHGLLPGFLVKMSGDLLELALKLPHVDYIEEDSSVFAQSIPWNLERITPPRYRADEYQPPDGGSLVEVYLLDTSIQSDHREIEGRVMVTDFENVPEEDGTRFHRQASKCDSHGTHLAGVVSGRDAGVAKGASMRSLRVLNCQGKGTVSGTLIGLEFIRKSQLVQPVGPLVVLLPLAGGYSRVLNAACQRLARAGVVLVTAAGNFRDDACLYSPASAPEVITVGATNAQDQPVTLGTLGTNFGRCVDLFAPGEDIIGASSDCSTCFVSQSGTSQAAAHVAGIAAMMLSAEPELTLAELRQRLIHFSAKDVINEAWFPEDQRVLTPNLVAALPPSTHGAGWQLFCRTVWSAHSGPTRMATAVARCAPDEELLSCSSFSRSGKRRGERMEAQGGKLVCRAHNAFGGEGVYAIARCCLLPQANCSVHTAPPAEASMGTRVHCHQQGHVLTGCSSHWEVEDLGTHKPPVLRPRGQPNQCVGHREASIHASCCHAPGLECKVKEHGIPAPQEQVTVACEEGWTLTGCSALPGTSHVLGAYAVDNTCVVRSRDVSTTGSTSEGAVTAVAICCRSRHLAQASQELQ
Assay: TR-FRET competition (PCSK9/EGF(A) assay); competitor EGF(A)-Fc;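 note: proximity signal from anti-His APC on PCSK9 paired with anti-Fc europium on the Fc ligand, read as normalized TR-FRET ratio across compound dilutions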
pIC50: −log10 of the molar value. Bridge positions count the residues as written; N and C are the ends. Square brackets hold non-standard residues; d marks the D form.
experimental.endpoint: pIC50

binder	experimental.endpoint	value.relation.sign	val
Ac-CRLPWN[dL]QRIGLPC-NH2 (disulfide 1-14; SMILES CC[C@H](C)[C@@H]1NC(=O)[C@H](CCCNC(=N)N)NC(=O)[C@H](CCC(N)=O)NC(=O)[C@@H](CC(C)C)NC(=O)[C@H](CC(N)=O)NC(=O)[C@H](Cc2c[nH]c3ccccc23)NC(=O)[C@@H]2CCCN2C(=O)[C@H](CC(C)C)NC(=O)[C@H](CCCNC(=N)N)NC(=O)[C@@H](NC(C)=O)CSSC[C@@H](C(N)=O)NC(=O)[C@@H]2CCCN2C(=O)[C@H](CC(C)C)NC(=O)CNC1=O) [Compound 104 (Ac-CRLPWNlQRIGLPC-NH2)]	pIC50	<	4.30
Ac-FCLWNLARIGSQCWF-NH2 (disulfide 2-13; SMILES CC[C@H](C)[C@@H]1NC(=O)[C@H](CCCNC(=N)N)NC(=O)[C@H](C)NC(=O)[C@H](CC(C)C)NC(=O)[C@H](CC(N)=O)NC(=O)[C@H](Cc2c[nH]c3ccccc23)NC(=O)[C@H](CC(C)C)NC(=O)[C@@H](NC(=O)[C@H](Cc2ccccc2)NC(C)=O)CSSC[C@@H](C(=O)N[C@@H](Cc2c[nH]c3ccccc23)C(=O)N[C@@H](Cc2ccccc2)C(N)=O)NC(=O)[C@H](CCC(N)=O)NC(=O)[C@H](CO)NC(=O)CNC1=O) [Compound 88 (Ac-FCLWNLARIGSQCWF-NH2)]	pIC50	=	4.75
